Each recorded value in this set is attributed to PubChem BioAssay AID1159580.

Listed here are compounds together with their documented normalized growth.
Procedure Details: chemical genetic growth profiling, strain panel (AID 1159580);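 also: tested at 20 µM; growth read once vehicle control cultures reached saturation at 30 °C; 1 = growth at the plate median or of vehicle wells; lower values mean less growth of the strain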
Run Parameters: S. cerevisiae deletion strains, growth OD, locus YOR231W, strain MKK1, active compounds read low
Screen size: about 5,500 compounds; about 2,000 (36%) were called active. About 18% were inconclusive and are not listed. Some of the results follow.
API doc: respond with a numeric literal and nothing else, no unit.

Sample records with normalized growth:
Compound	normalized growth
COc1cc(NS(C)(=O)=O)ccc1Cc1c2ccccc2nc2ccccc12	1.01
C=C[C@@]1(C)CC(=O)[C@@]2(O)[C@](C)(O1)[C@@H](OC(C)=O)[C@@H](O)C1C(C)(C)CC[C@H](O)[C@@]12C (some centres undefined)	0.966
CC1CCC(C(C)C)C(N(Cc2ccccc2)C(=O)c2ccccc2)C1 (centres undefined)	0.977

The record that follows has no normalized growth shown yet.
Ask: Consider the compound shown here: `CC[C@@H]1OC(=O)C[C@@H](O)[C@H](C)[C@@H](O[C@@H]2O[C@H](C)[C@@H](O)[C@H](N(C)C)[C@H]2O)[C@@H](CCN2C[C@H](C)C[C@H](C)C2)C[C@@H](C)C(=O)/C=C/C(C)=C\[C@@H]1CO[C@@H]1O[C@H](C)[C@@H](O)[C@@H](OC)[C@H]1OC` What is its recorded normalized growth?
Reply: 0.976
